- Test system: MCF7
- test.method.notes: Antiproliferative activity against human MCF7 cells assessed inhibition of cell growth incubated for 72 hrs by CCK-8 assay relative to control
- Format: functional
Values of inhibition (INH) greater than or equal to 20% map to 1.0; values below map to 0.0.

smiles.code | target.of.assay | class.assignment
COc1cc(N2CCCCC2)ccc1Nc1nc(OC2CCCC2)c2c(-c3ccc(OC)c(OC)c3)n[nH]c2n1 | MCF7 | 0.0
COc1cc(N2CCC(N(C)C)CC2)ccc1Nc1nc(OC2CCCCC2)c2c(-c3ccc(OC)c(OC)c3)n[nH]c2n1 | MCF7 | 1.0
COc1cc(N2CCN(C(C)=O)CC2)ccc1Nc1nc(OC2CCCC2)c2c(-c3ccc(OC)c(OC)c3)n[nH]c2n1 | MCF7 | 0.0
COc1ccc(-c2n[nH]c3nc(Nc4ccc(N5CCC(N(C)C)CC5)cc4OC)nc(OC4CCCC4)c23)cc1 | MCF7 | 0.0

Query: Identify whether the reported inhibition (INH) of the following molecule is 20% or greater: COc1ccc(-c2n[nH]c3nc(Nc4ccccc4)nc(OC4CCCC4)c23)cc1OC
Result: 0.0

Query: Identify whether the reported inhibition (INH) of the following molecule is 20% or greater: COc1cc(N2CCOCC2)ccc1Nc1nc(OC2CCCC2)c2c(-c3ccc(OC)c(OC)c3)n[nH]c2n1
Result: 0.0

Query: Identify whether the reported inhibition (INH) of the following molecule is 20% or greater: COc1cccc(-c2n[nH]c3nc(Nc4ccc(N5CCC(N(C)C)CC5)cc4OC)nc(OC4CCCC4)c23)c1
Result: 1.0

Query: Identify whether the reported inhibition (INH) of the following molecule is 20% or greater: COc1cc(N2CCN(C)CC2)ccc1Nc1nc(OC2CCCC2)c2c(-c3ccc(OC)c(OC)c3)n[nH]c2n1
Result: 0.0

Query: Identify whether the reported inhibition (INH) of the following molecule is 20% or greater: COc1cc(N2CCC(N(C)C)CC2)ccc1Nc1nc(OC2CCCC2)c2c(-c3ccc(OC)c(OC)c3)n[nH]c2n1
Result: 1.0

====

- target.of.assay: UniProtKB P33981
- test.method.notes: Inhibition of Mps1 (unknown origin) at 1000 nM pretreated for 10 mins followed by substrate addition and measured after 60 mins in presence of ATP by ADP-glo kinase assay relative to control
- condition.context: time 70.0 min
Listed below: inhibition values for each entry.
Unit % implied. Number only.

Reference set (3 entries):
smiles.code | target.of.assay | inhibition (%)
COc1cccc(-c2n[nH]c3nc(Nc4ccc(N5CCC(N(C)C)CC5)cc4OC)nc(OC4CCCC4)c23)c1 | UniProtKB P33981 | 44.5
COc1cc(N2CCC(N(C)C)CC2)ccc1Nc1nc(OC2CC2)c2c(-c3ccc(OC)c(OC)c3)n[nH]c2n1 | UniProtKB P33981 | 63.9
COc1cc(N2CCCCC2)ccc1Nc1nc(OC2CCCC2)c2c(-c3ccc(OC)c(OC)c3)n[nH]c2n1 | UniProtKB P33981 | 49.1

Continue with the compound presented below.
Query: Query inhibition for COc1cc(N2CCC(N(C)C)CC2)ccc1Nc1nc(OC2CCCC2)c2c(-c3ccc(OC)c(OC)c3)n[nH]c2n1
Result: 84.7

====

- target.of.assay: Dual specificity protein kinase TTK (Homo sapiens)
- Sequence (P33981 whole entry): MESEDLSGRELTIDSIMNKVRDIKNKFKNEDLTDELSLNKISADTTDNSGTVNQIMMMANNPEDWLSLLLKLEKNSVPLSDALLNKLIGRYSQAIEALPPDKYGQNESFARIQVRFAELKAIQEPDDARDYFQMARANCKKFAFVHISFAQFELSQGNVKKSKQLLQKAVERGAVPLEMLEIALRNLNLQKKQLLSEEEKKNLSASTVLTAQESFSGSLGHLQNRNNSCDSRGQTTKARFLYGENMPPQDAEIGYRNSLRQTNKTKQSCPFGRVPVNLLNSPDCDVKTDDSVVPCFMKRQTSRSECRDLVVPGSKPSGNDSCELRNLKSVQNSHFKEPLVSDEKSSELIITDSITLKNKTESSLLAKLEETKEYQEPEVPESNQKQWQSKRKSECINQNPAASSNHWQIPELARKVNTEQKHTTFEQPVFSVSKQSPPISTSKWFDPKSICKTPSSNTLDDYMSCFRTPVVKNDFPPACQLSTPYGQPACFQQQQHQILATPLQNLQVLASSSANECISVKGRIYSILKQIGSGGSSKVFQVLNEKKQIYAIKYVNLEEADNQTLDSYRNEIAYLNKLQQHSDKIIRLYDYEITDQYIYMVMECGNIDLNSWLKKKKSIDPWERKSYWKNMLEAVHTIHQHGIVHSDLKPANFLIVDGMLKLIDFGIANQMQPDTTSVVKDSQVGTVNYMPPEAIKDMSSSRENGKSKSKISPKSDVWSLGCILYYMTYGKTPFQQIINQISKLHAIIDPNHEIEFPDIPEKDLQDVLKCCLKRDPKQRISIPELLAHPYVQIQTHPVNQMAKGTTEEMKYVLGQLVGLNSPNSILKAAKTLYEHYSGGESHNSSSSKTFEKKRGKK
- test.method.notes: Inhibition of Mps1 (unknown origin) pretreated for 10 mins followed by substrate addition and measured after 60 mins in presence of ATP by ADP-glo kinase assay
pIC50: −log10 of the molar value.
result.type: pIC50

Reference set (2 entries):
smiles.code | result
CCc1cccc(CC)c1NC(=O)c1ccn(-c2nc(Nc3ccc(N4CCOCC4)cc3N3CCN(C)CC3)nc3[nH]ncc23)c1 | < 6.00
COc1cc(N2CCN(C)CC2)ccc1Nc1nc(-n2ccc(C(=O)Nc3c(C)cccc3C)c2)c2cn[nH]c2n1 | 8.42

Query: Query pIC50 for C=CC(=O)Nc1cc(N2CCN(C(C)=O)CC2)ccc1Nc1nc(-n2ccc(C(=O)Nc3c(CC)cccc3CC)c2)c2cn[nH]c2n1
Result: < 6.00

Query: Query pIC50 for C=CC(=O)Nc1cc(N2CCOCC2)ccc1Nc1nc(-c2cc3n(c2)CCN(c2c(CC)cccc2CC)C3=O)c2cn[nH]c2n1
Result: < 6.00

====

- target.of.assay: Dual specificity protein kinase TTK (Homo sapiens)
- test.method.notes: Inhibition of MPS1 (unknown origin)
result.type: pIC50
# pIC50 is unitless: minus log10 of the molar concentration; print number only

Query: Query pIC50 for COCCCNC(=O)c1cc(-c2ccc(OC)c(OC)c2)nc2[nH]nc(-c3ccc(OC)cc3)c12
Result: 6.41

====

- test.method.notes: Cmax in Sprague-Dawley rat at 10 mg/kg, po measured upto 24 hrs by LC-MS/MS analysis
- Assay type: ADME, organism-based
- Parameters: time < 24 hrs, dose 10 mg/kg, route po
- condition.context: in vivo
result.type: Cmax

Query: Query Cmax for CCc1cccc(CC)c1N1CCn2cc(-c3nc(Nc4ccc(N5CCN(C(C)=O)CC5)cc4OC)nc4[nH]ncc34)cc2C1=O
Result: 160 ng/mL

====

- target.of.assay: Dual specificity protein kinase TTK (Homo sapiens)
- test.method.notes: Inhibition of Mps1 (unknown origin) pretreated for 10 mins followed by substrate addition and measured after 60 mins in presence of ATP by ADP-glo kinase assay
result.type: IC50

Reference set (3 entries):
smiles.code | result
C=CC(=O)Nc1cc(NC(=O)CC)ccc1Nc1nc(-n2ccc(C(=O)Nc3c(CC)cccc3CC)c2)c2cn[nH]c2n1 | > 1000 nM
C#CC(=O)Nc1cc(N2CCN(C(C)=O)CC2)ccc1Nc1nc(-n2ccc(C(=O)Nc3c(CC)cccc3CC)c2)c2cn[nH]c2n1 | > 1000 nM
CCc1cccc(CC)c1N1CCn2cc(-c3nc(Nc4ccc(N5CCN(C(C)=O)CC5)cc4OC)nc4[nH]ncc34)cc2C1=O | 2.6 nM

Query: Query IC50 for CC#CC(=O)Nc1cc(N2CCOCC2)ccc1Nc1nc(-n2ccc(C(=O)Nc3c(CC)cccc3CC)c2)c2cn[nH]c2n1
Result: > 1000 nM

Query: Query IC50 for CCc1cccc(CC)c1NC(=O)c1ccn(-c2nc(Nc3ccc(N4CCN(C)CC4)cc3OC)nc3[nH]ncc23)c1
Result: 3.37 nM

Query: Query IC50 for CCc1cccc(CC)c1N1CCn2cc(-c3nc(Nc4ccc(N5CCOCC5)cc4OC)nc4[nH]ncc34)cc2C1=O
Result: 6.14 nM

Query: Query IC50 for CCC(=O)Nc1cc(N2CCN(C(C)=O)CC2)ccc1Nc1nc(-n2ccc(C(=O)Nc3c(CC)cccc3CC)c2)c2cn[nH]c2n1
Result: > 1000 nM

====

- test.method.notes: Cmax in Sprague-Dawley rat at 2 mg/kg, iv measured upto 24 hrs by LC-MS/MS analysis
- Assay type: ADME, organism-based
- Parameters: time < 24 hrs, dose 2 mg/kg, route iv
- condition.context: in vivo
result.type: Cmax (ng/mL)
Unit ng/mL implied. Number only.

Query: Query Cmax for CCc1cccc(CC)c1N1CCn2cc(-c3nc(Nc4ccc(N5CCN(C(C)=O)CC5)cc4OC)nc4[nH]ncc34)cc2C1=O
Result: 2920

====

- test.method.notes: Metabolic stability in human liver microsome assessed as parent compound remaining preincubated for 10 mins followed by NADPH addition and measured at 60 mins by LC-MS/MS analysis
- Assay type: ADME
- condition.context: liver microsomes, time 70 min, read-out: Stability
result.type: remaining at 1 h (%)
Unit % implied. Number only.

Query: Query remaining at 1 h for CCc1cccc(CC)c1N1CCn2cc(-c3nc(Nc4ccc(N5CCN(C(C)=O)CC5)cc4OC)nc4[nH]ncc34)cc2C1=O
Result: 29.4

====

- Tested on: MV4-11
- test.method.notes: Antiproliferative activity against human MV4-11 cells assessed inhibition of cell growth incubated for 72 hrs by CCK-8 assay relative to control
- Format: functional
result.type: inhibition (INH) (%)
Unit % implied. Number only.

Reference set (3 entries):
smiles.code | numeric.value
COc1ccc(-c2n[nH]c3nc(Nc4ccc(N5CCC(N(C)C)CC5)cc4OC)nc(OC4CCCC4)c23)cc1 | -10.86
COc1ccc(-c2n[nH]c3nc(Nc4ccccc4)nc(OC4CCCC4)c23)cc1OC | -13.46
COc1cc(N2CCN(C(C)=O)CC2)ccc1Nc1nc(OC2CCCC2)c2c(-c3ccc(OC)c(OC)c3)n[nH]c2n1 | 8.63

Query: Query inhibition (INH) for COc1cc(N2CCN(C)CC2)ccc1Nc1nc(OC2CCCC2)c2c(-c3ccc(OC)c(OC)c3)n[nH]c2n1
Result: -3.55

====

- test.method.notes: MRT (0 to infinity) in Sprague-Dawley rat at 10 mg/kg, po measured upto 24 hrs by LC-MS/MS analysis
- Assay type: ADME, organism-based
- condition.context: in vivo
result.type: MRT inf (h)
Unit h implied. Number only.

Query: Query MRT inf for CCc1cccc(CC)c1N1CCn2cc(-c3nc(Nc4ccc(N5CCN(C(C)=O)CC5)cc4OC)nc4[nH]ncc34)cc2C1=O
Result: 1.23
